# test-system: T1, AFP158/HLA-A*02:01 complex (human)
# T1 construct: biotinylated on the BSP by BirA for ELISA and panning; also called biotinylated AFP158/HLA-A*02:01 complex; Bio-AFP158
# method-notes: SPR; vs AS170036 VL1VH1;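 note: crude scFv captured on sensor chip, peptide–HLA complex flowed over at several concentrations, KD estimated from association and dissociation kinetic rates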
measured-endpoint: Affinity increase (fold)
Answers are plain numbers, in fold.

Below, 2 binders whose answers are already recorded.
AS170036 VL1VH1-VHG56N (scFv) scFv: QSALTQPRSVSGSPGQSVTISCAGTSSDVGSENYVSWYQQHPGKAPKLMIYQVNKRASGVPDRFSGSKSGNTASLTISGLQAEDEADYYCASYRSSDHNIVFGGGTKLTVLGGGGSGGGGSGGGGSEVQLVESGGGLVQPGGSLRLSCAASGFTFSSYAMSWVRQAPGKGLEWVSTINSGTNSPYYADSVKGRFTISRDNSKNTLYLQMNSLRAEDTAVYYCAKNFFDGSWFLGPPAMDYWGQGTLVTVSSHHHHHH : 2.5
AS170036 VL1VH1 HP58F (scFv) scFv: QSALTQPRSVSGSPGQSVTISCAGTSSDVGSENYVSWYQQHPGKAPKLMIYQVNKRASGVPDRFSGSKSGNTASLTISGLQAEDEADYYCASYRSSDHNIVFGGGTKLTVLGGGGSGGGGSGGGGSEVQLVESGGGLVQPGGSLRLSCAASGFTFSSYAMSWVRQAPGKGLEWVSTINSGTGSFYYADSVKGRFTISRDNSKNTLYLQMNSLRAEDTAVYYCAKNFFDGSWFLGPPAMDYWGQGTLVTVSSHHHHHH : 0.2

Dear colleague, could you send me Affinity increase for each of the items below? Thanks.
1. AS170036 VL1VH1 HG56L (scFv) scFv: QSALTQPRSVSGSPGQSVTISCAGTSSDVGSENYVSWYQQHPGKAPKLMIYQVNKRASGVPDRFSGSKSGNTASLTISGLQAEDEADYYCASYRSSDHNIVFGGGTKLTVLGGGGSGGGGSGGGGSEVQLVESGGGLVQPGGSLRLSCAASGFTFSSYAMSWVRQAPGKGLEWVSTINSGTLSPYYADSVKGRFTISRDNSKNTLYLQMNSLRAEDTAVYYCAKNFFDGSWFLGPPAMDYWGQGTLVTVSSHHHHHH
2. AS170036 VL1VH1 HD102P (scFv) scFv: QSALTQPRSVSGSPGQSVTISCAGTSSDVGSENYVSWYQQHPGKAPKLMIYQVNKRASGVPDRFSGSKSGNTASLTISGLQAEDEADYYCASYRSSDHNIVFGGGTKLTVLGGGGSGGGGSGGGGSEVQLVESGGGLVQPGGSLRLSCAASGFTFSSYAMSWVRQAPGKGLEWVSTINSGTGSPYYADSVKGRFTISRDNSKNTLYLQMNSLRAEDTAVYYCAKNFFPGSWFLGPPAMDYWGQGTLVTVSSHHHHHH
3. AS170036 VL1VH1 HG108Y (scFv) scFv: QSALTQPRSVSGSPGQSVTISCAGTSSDVGSENYVSWYQQHPGKAPKLMIYQVNKRASGVPDRFSGSKSGNTASLTISGLQAEDEADYYCASYRSSDHNIVFGGGTKLTVLGGGGSGGGGSGGGGSEVQLVESGGGLVQPGGSLRLSCAASGFTFSSYAMSWVRQAPGKGLEWVSTINSGTGSPYYADSVKGRFTISRDNSKNTLYLQMNSLRAEDTAVYYCAKNFFDGSWFLYPPAMDYWGQGTLVTVSSHHHHHH

Outgoing:
1: 0.8; 2: 0.3; 3: 0.2
